Numbers sourced from ChEMBL document CHEMBL1156031.

For each entry below, report its Ki value.
Only the number, expressed in µM, is required.

**Query** Retrieve Ki on 5-hydroxytryptamine receptor 2B (Homo sapiens, UniProt P41595); query O=C1Cc2c(ccc3c2OC[C@H](CNCC2CCc4[nH]c5ccc(F)cc5c4C2)O3)N1 (stereo in doubt; 25)
Sequence (P41595 whole entry): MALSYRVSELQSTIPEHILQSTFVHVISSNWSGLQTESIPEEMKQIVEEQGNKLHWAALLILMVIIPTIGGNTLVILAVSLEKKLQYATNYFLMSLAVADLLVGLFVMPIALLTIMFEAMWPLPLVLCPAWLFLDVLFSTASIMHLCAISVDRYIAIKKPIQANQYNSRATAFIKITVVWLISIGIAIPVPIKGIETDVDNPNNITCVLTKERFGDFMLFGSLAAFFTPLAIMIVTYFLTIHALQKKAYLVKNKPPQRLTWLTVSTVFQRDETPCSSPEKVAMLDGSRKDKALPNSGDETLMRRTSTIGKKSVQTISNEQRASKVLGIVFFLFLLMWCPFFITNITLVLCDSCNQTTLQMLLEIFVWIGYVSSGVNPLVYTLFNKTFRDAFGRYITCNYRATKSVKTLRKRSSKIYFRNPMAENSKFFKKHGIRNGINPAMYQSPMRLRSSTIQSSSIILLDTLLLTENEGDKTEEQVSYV
**Result** 0.006

**Query** Retrieve Ki on 5-hydroxytryptamine receptor 2B (Homo sapiens, UniProt P41595); query O=c1[nH]c2cccc(N3CCN(CC4CCc5[nH]c6ccc(F)cc6c5C4)CC3)c2o1 (single isomer, unassigned; 31)
**Result** 0.68

**Query** Retrieve Ki on 5-hydroxytryptamine receptor 2B (Homo sapiens, UniProt P41595); query O=C1Cc2c(ccc3c2OC[C@H](CNCCCC2CCc4c([nH]c5ccc(F)cc45)C2)O3)N1 (stereo in doubt; 23)
**Result** 0.4

**Query** Retrieve Ki on 5-hydroxytryptamine receptor 2B (Homo sapiens, UniProt P41595); query O=c1[nH]c2cccc(N3C[C@H]4C[C@@H]3CN4CC3CCc4[nH]c5ccc(F)cc5c4C3)c2o1 (some centres undefined)
**Result** 0.165

====

For each entry below, report its Ratio Ki value.
- ASSAY OVERVIEW: Selectivity of Ki for human serotonin transporter to Ki for rat alpha1 adrenergic receptor
Just the number.

**Query** Identify Ratio Ki associated with the compound O=C1Cc2c(ccc3c2OC[C@H](CNCC2CCc4[nH]c5ccc(F)cc5c4C2)O3)N1 (stereo in doubt; 25)
**Result** 10

**Query** Identify Ratio Ki associated with the compound O=C1Cc2c(ccc3c2OC[C@H](CNCCCC2CCc4c([nH]c5ccc(F)cc45)C2)O3)N1 (stereo in doubt; 22)
**Result** 10

**Query** Identify Ratio Ki associated with the compound O=c1[nH]c2cccc(N3C[C@H]4C[C@@H]3CN4CC3CCc4[nH]c5ccc(F)cc5c4C3)c2o1 (stereo not given in full)
**Result** 10

**Query** Identify Ratio Ki associated with the compound O=C1Cc2c(ccc3c2OC[C@H](CNCCCC2CCc4c([nH]c5ccc(F)cc45)C2)O3)N1 (stereo in doubt; 23)
**Result** 10

**Query** Identify Ratio Ki associated with the compound O=C1Cc2c(ccc3c2OC[C@H](CNCC2CCc4[nH]c5ccc(F)cc5c4C2)O3)N1 (single isomer, unassigned)
**Result** 10

====

- TEST SYSTEM: UniProt P14416
- ASSAY OVERVIEW: Ratio of drug to quinpirole for agonist activity at D2 receptor assessed as change in intracellular cAMP level by cell based assay
- Assay type: functional
For each entry below, report its Ratio value.
Just the number.

**Query** Identify Ratio associated with the molecule O=C1Cc2c(ccc3c2OC[C@H](CNCC2CCc4[nH]c5ccc(F)cc5c4C2)O3)N1 (single isomer, unassigned)
**Result** 0.3

**Query** Identify Ratio associated with the molecule O=c1[nH]c2cccc(N3CCN(CC4CCc5[nH]c6ccc(F)cc6c5C4)CC3)c2o1 (single isomer, unassigned; 31)
**Result** 0.6

**Query** Identify Ratio associated with the molecule O=C1Cc2c(ccc3c2OC[C@H](CNCC2CCc4[nH]c5ccc(F)cc5c4C2)O3)N1 (stereo in doubt; 25)
**Result** 0.4

**Query** Identify Ratio associated with the molecule O=C1Cc2c(ccc3c2OC[C@H](CNCCCC2CCc4c([nH]c5ccc(F)cc45)C2)O3)N1 (stereo in doubt; 23)
**Result** 0.3

**Query** Identify Ratio associated with the molecule O=C1Cc2c(ccc3c2OC[C@H](CNCCCC2CCc4c([nH]c5ccc(F)cc45)C2)O3)N1 (stereo in doubt; 22)
**Result** 0.3

**Query** Identify Ratio associated with the molecule O=c1[nH]c2cccc(N3C[C@H]4C[C@@H]3CN4CC3CCc4[nH]c5ccc(F)cc5c4C3)c2o1 (some centres not stated)
**Result** 0.3

====

VALUE TYPE: log10(Ki) (log10 of the value in nM)
Heads up, the numbers here are log10 of Ki in nM units.

**Query** Retrieve log10(Ki) on Sodium-dependent serotonin transporter (Homo sapiens); query O=C1Cc2c(cccc2N2CCN(CCC3CCc4[nH]c5ccc(F)cc5c4C3)CC2)N1 (stereo not given)
Sequence (P31645 whole entry): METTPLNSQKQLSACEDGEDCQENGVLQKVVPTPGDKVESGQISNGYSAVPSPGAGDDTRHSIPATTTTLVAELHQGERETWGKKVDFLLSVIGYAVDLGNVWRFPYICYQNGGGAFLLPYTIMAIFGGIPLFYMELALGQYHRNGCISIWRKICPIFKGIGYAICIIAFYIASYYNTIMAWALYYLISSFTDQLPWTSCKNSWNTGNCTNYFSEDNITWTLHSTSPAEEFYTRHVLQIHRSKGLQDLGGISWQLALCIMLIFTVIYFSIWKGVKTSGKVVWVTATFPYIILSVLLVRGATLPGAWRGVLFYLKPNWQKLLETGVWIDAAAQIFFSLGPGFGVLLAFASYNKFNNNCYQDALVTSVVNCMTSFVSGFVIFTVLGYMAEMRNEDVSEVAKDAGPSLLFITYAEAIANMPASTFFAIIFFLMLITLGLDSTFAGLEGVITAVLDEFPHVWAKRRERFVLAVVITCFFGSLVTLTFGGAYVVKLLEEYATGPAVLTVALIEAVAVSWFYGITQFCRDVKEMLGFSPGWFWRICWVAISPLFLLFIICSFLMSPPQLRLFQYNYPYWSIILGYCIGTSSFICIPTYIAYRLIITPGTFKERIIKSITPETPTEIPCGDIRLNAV
**Result** 3.67

**Query** Retrieve log10(Ki) on Sodium-dependent serotonin transporter (Homo sapiens); query O=c1[nH]c2cccc(N3CCN(CCCC4CCc5c([nH]c6ccc(F)cc56)C4)CC3)c2o1 (stereo not given)
**Result** 1.79

**Query** Retrieve log10(Ki) on Sodium-dependent serotonin transporter (Homo sapiens); query O=C1Cc2c(ccc3c2OC[C@H](CNCC2CCc4[nH]c5ccc(F)cc5c4C2)O3)N1 (stereo in doubt; 25)
**Result** 0.00

**Query** Retrieve log10(Ki) on Sodium-dependent serotonin transporter (Homo sapiens); query O=c1[nH]c2cccc(CN3CCN(CC4CCc5[nH]c6ccc(F)cc6c5C4)CC3)c2o1 (stereo not given)
**Result** 1.61

**Query** Retrieve log10(Ki) on Sodium-dependent serotonin transporter (Homo sapiens); query O=C1Cc2c(ccc3c2OC[C@H](CNCCCC2CCc4c([nH]c5ccc(F)cc45)C2)O3)N1 (stereo in doubt; 23)
**Result** 0.60

**Query** Retrieve log10(Ki) on Sodium-dependent serotonin transporter (Homo sapiens); query O=c1[nH]c2cccc(N3C[C@H]4C[C@@H]3CN4CC3CCc4[nH]c5ccc(F)cc5c4C3)c2o1 (stereo not given in full)
**Result** 0.90

**Query** Retrieve log10(Ki) on Sodium-dependent serotonin transporter (Homo sapiens); query O=c1[nH]c2cccc(N3CCN(CC4CCc5[nH]c6ccc(F)cc6c5C4)CC3)c2o1 (single isomer, unassigned; 31)
**Result** 1.34

**Query** Retrieve log10(Ki) on Sodium-dependent serotonin transporter (Homo sapiens); query O=C1Cc2c(ccc3c2OC[C@H](CNCCCC2CCc4c([nH]c5ccc(F)cc45)C2)O3)N1 (stereo in doubt; 22)
**Result** 1.18

====

For each entry below, report its Ki value.
- TEST SYSTEM: D(2) dopamine receptor (Homo sapiens)
- Sequence (P14416 whole entry): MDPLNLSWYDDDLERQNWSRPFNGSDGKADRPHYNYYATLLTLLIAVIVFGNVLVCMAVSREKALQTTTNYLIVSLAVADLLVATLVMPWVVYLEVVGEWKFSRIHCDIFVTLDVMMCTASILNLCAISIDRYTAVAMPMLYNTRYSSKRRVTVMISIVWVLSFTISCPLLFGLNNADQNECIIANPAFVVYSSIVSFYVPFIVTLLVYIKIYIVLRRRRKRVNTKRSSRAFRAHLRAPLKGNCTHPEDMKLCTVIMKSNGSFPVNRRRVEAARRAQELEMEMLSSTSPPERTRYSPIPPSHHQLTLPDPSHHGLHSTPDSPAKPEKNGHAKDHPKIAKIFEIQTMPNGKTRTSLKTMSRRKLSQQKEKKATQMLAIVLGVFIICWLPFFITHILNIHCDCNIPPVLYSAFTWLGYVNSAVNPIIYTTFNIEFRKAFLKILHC
- ASSAY OVERVIEW: Displacement of [3H]spiperone from D2 receptor
Only the number, expressed in nM, is required.

**Query** Retrieve Ki on D(2) dopamine receptor (Homo sapiens); query O=c1[nH]c2cccc(N3CCN(CC4CCc5[nH]c6ccc(F)cc6c5C4)CC3)c2o1 (single isomer, unassigned; 31)
**Result** 17

**Query** Retrieve Ki on D(2) dopamine receptor (Homo sapiens); query O=c1[nH]c2cccc(N3CCN(CC4CCc5[nH]c6ccc(F)cc6c5C4)CC3)c2o1 (single isomer, unassigned; 30)
**Result** 60

====

For each entry below, report its Ki value.
- TEST SYSTEM: UniProt P14416
- ASSAY OVERVIEW: Displacement of [3H]spiperone from D2 receptor
Only the number, expressed in nM, is required.

**Query** Identify Ki associated with the compound O=C1Cc2c(cccc2N2CCN(CCC3CCc4[nH]c5ccc(F)cc5c4C3)CC2)N1 (stereo not given)
**Result** 15

**Query** Identify Ki associated with the compound O=c1[nH]c2cccc(CN3CCN(CC4CCc5[nH]c6ccc(F)cc6c5C4)CC3)c2o1 (stereo not given)
**Result** 120

**Query** Identify Ki associated with the compound O=c1[nH]c2cccc(N3CCN(CCCC4CCc5c([nH]c6ccc(F)cc56)C4)CC3)c2o1 (stereo not given)
**Result** 50

**Query** Identify Ki associated with the compound O=C1Cc2c(ccc3c2OC[C@H](CNCCC2CCc4c([nH]c5ccc(F)cc45)C2)O3)N1 (stereo not given in full)
**Result** 36

**Query** Identify Ki associated with the compound O=c1[nH]c2cccc(N3CCN(CC4CCc5c([nH]c6ccc(F)cc56)C4)CC3)c2o1 (stereo not given)
**Result** 220

====

- TEST SYSTEM: D(2) dopamine receptor (Homo sapiens)
- ASSAY OVERVIEW: Displacement of [3H]spiperone from D2 receptor
For each entry below, report its pKi value.
Kindly note that pKi refers to -log10 of the concentration in mol/L and answer with the value alone.

**Query** Identify pKi associated with the compound O=C1Cc2c(ccc3c2OC[C@H](CNCC2CCc4[nH]c5ccc(F)cc5c4C2)O3)N1 (single isomer, unassigned)
**Result** 8.52

**Query** Identify pKi associated with the compound O=C1Cc2c(ccc3c2OC[C@H](CNCCCC2CCc4c([nH]c5ccc(F)cc45)C2)O3)N1 (stereo in doubt; 23)
**Result** 7.35

**Query** Identify pKi associated with the compound O=c1[nH]c2cccc(OC3CCN(CC4CCc5[nH]c6ccc(F)cc6c5C4)CC3)c2o1 (centres undefined)
**Result** 6.85

**Query** Identify pKi associated with the compound O=c1[nH]c2cccc(OCC3CCN(CC4CCc5[nH]c6ccc(F)cc6c5C4)CC3)c2o1 (centres undefined)
**Result** 7.55

====

- TEST SYSTEM: Adrenergic receptor alpha-1 (Rattus norvegicus, UniProt P15823+P23944+P43140)
- ASSAY OVERVIEW: Binding affinity to alpha1 adrenergic receptor in rat brain membrane by radioligand binding assay
- Format: cell membranes
Note to self: Ki under 50 nM means true (1), ties and anything higher get false (0).

**Query** Quick check: Ki of O=c1[nH]c2cccc(N3CCN(CC4CCc5[nH]c6ccc(F)cc6c5C4)CC3)c2o1 (single isomer, unassigned; 31) under 50 nM?
**Result** false (0)

**Query** Quick check: Ki of O=c1[nH]c2cccc(N3C[C@H]4C[C@@H]3CN4CC3CCc4[nH]c5ccc(F)cc5c4C3)c2o1 (some centres not stated) under 50 nM?
**Result** false (0)

**Query** Quick check: Ki of O=C1Cc2c(ccc3c2OC[C@H](CNCC2CCc4[nH]c5ccc(F)cc5c4C2)O3)N1 (stereo in doubt; 25) under 50 nM?
**Result** true (1)

**Query** Quick check: Ki of O=C1Cc2c(ccc3c2OC[C@H](CNCC2CCc4[nH]c5ccc(F)cc5c4C2)O3)N1 (single isomer, unassigned) under 50 nM?
**Result** true (1)

**Query** Quick check: Ki of O=C1Cc2c(ccc3c2OC[C@H](CNCCCC2CCc4c([nH]c5ccc(F)cc45)C2)O3)N1 (stereo in doubt; 23) under 50 nM?
**Result** true (1)

**Query** Quick check: Ki of O=c1[nH]c2cccc(OCC3CCN(CC4CCc5[nH]c6ccc(F)cc6c5C4)CC3)c2o1 (configuration not stated) under 50 nM?
**Result** false (0)

**Query** Quick check: Ki of O=C1Cc2c(ccc3c2OC[C@H](CNCCCC2CCc4c([nH]c5ccc(F)cc45)C2)O3)N1 (stereo in doubt; 22) under 50 nM?
**Result** false (0)
